System: Plasma
Test: Fraction unbound in human plasma at 10 uM after 4 hrs by LC-MS/MS based rapid equilibrium dialysis method
Type: ADME, cell-free
So basically, the class depends on measured Fu, and the ranges are LOW = under 30%, MEDIUM = from 30% up to 40%, HIGH = 40% and over

# bin lookup: classify CC(C)[C@H](O/N=C(\C(=O)N[C@@H]1C(=O)N(OS(=O)(=O)O)C1(C)C)c1nc(N)sc1Cl)c1cc(=O)c(O)cn1O by its Fu
LOW

# bin lookup: classify CC1(C)[C@H](NC(=O)/C(=N\OC(CS(C)(=O)=O)c2cc(=O)c(O)cn2O)c2csc(N)n2)C(=O)N1OS(=O)(=O)O (stereo not given in full) by its Fu
HIGH

# bin lookup: classify CCC(O/N=C(\C(=O)N[C@@H]1C(=O)N(OS(=O)(=O)O)C1(C)C)c1csc(N)n1)c1cc(=O)c(O)cn1O (stereo not given in full) by its Fu
MEDIUM

# bin lookup: classify CSCC(O/N=C(\C(=O)N[C@@H]1C(=O)N(OS(=O)(=O)O)C1(C)C)c1csc(N)n1)c1cc(=O)c(O)cn1O (stereo not given in full) by its Fu
MEDIUM

# bin lookup: classify CC(C)C(O/N=C(\C(=O)N[C@@H]1C(=O)N(OS(=O)(=O)O)C1(C)C)c1csc(N)n1)c1cc(=O)c(O)cn1O (stereo not given in full) by its Fu
MEDIUM

# bin lookup: classify CSC[C@H](O/N=C(\C(=O)N[C@@H]1C(=O)N(OS(=O)(=O)O)C1(C)C)c1csc(N)n1)c1cc(=O)c(O)cn1O by its Fu
LOW

# bin lookup: classify COCC(O/N=C(\C(=O)N[C@@H]1C(=O)N(OS(=O)(=O)O)C1(C)C)c1csc(N)n1)c1cc(=O)c(O)cn1O (stereo not given in full) by its Fu
HIGH

# bin lookup: classify CC1(C)[C@H](NC(=O)/C(=N\OC(CO)c2cc(=O)c(O)cn2O)c2csc(N)n2)C(=O)N1OS(=O)(=O)O (stereo not given in full) by its Fu
HIGH

# bin lookup: classify CC(O/N=C(\C(=O)N[C@@H]1C(=O)N(OS(=O)(=O)O)C1(C)C)c1nsc(N)n1)c1cc(=O)c(O)cn1O (stereo not given in full) by its Fu
MEDIUM

# bin lookup: classify CC(C)[C@H](O/N=C(\C(=O)N[C@@H]1C(=O)N(OS(=O)(=O)O)C1(C)C)c1nsc(N)n1)c1cc(=O)c(O)cn1O by its Fu
LOW

# bin lookup: classify CC(O/N=C(\C(=O)N[C@@H]1C(=O)N(OS(=O)(=O)O)C1(C)C)c1nc(N)sc1Cl)c1cc(=O)c(O)cn1O (stereo not given in full) by its Fu
LOW

# bin lookup: classify CC(C)[C@H](O/N=C(\C(=O)N[C@@H]1C(=O)N(OS(=O)(=O)O)C1(C)C)c1csc(N)n1)c1cc(=O)c(O)cn1O by its Fu
LOW

# bin lookup: classify CNC(=O)C(O/N=C(\C(=O)N[C@@H]1C(=O)N(OS(=O)(=O)O)C1(C)C)c1csc(N)n1)c1cc(=O)c(O)cn1O (stereo not given in full) by its Fu
HIGH

###

System: Pseudomonas aeruginosa
Assay: Antibacterial activity against extended spectrum beta-lactamase IMP-4 producing multidrug resistant Pseudomonas aeruginosa clinical isolates after 18 hrs by broth microdilution method
Type: functional
RECORDED METRIC: MIC

According to the records, this molecule CSCC(O/N=C(\C(=O)N[C@@H]1C(=O)N(OS(=O)(=O)O)C1(C)C)c1csc(N)n1)c1cc(=O)c(O)cn1O (some centres not stated) displays MIC of 0.125 to 1 µg/mL

According to the records, this molecule CC1(C)[C@H](NC(=O)/C(=N\OC(C(=O)O)c2cc(=O)c(O)cn2O)c2csc(N)n2)C(=O)N1OS(=O)(=O)O (some centres not stated) displays MIC of 1 to 4 µg/mL

According to the records, this molecule CC(C)[C@H](O/N=C(\C(=O)N[C@@H]1C(=O)N(OS(=O)(=O)O)C1(C)C)c1csc(N)n1)c1cc(=O)c(O)cn1O displays MIC of 0.125 to 1 µg/mL

According to the records, this molecule CNC(=O)C(O/N=C(\C(=O)N[C@@H]1C(=O)N(OS(=O)(=O)O)C1(C)C)c1csc(N)n1)c1cc(=O)c(O)cn1O (some centres not stated) displays MIC of 4 µg/mL

According to the records, this molecule CC1(C)[C@H](NC(=O)/C(=N\OC(CS(C)(=O)=O)c2cc(=O)c(O)cn2O)c2csc(N)n2)C(=O)N1OS(=O)(=O)O (some centres not stated) displays MIC of 1 to 32 µg/mL

According to the records, this molecule CC(O/N=C(\C(=O)N[C@@H]1C(=O)N(OS(=O)(=O)O)C1(C)C)c1csc(N)n1)c1cc(=O)c(O)cn1O (some centres not stated) displays MIC of 0.25 to 8 µg/mL

According to the records, this molecule CC1(C)[C@H](NC(=O)/C(=N\OC(c2nccs2)c2cc(=O)c(O)cn2O)c2csc(N)n2)C(=O)N1OS(=O)(=O)O (some centres not stated) displays MIC of 1 to 2 µg/mL

###

Assay: in vivo
Details: Sprague-Dawley, rat, iv, 1 mg/kg
Exam item: assign MET to entries whose AUC(0-t) at 3 h is below 700 ng·h/mL and NOT MET to entries at or above 700 ng·h/mL. Note that a value of exactly 700 ng·h/mL receives NOT MET.

Strictly below 700 ng·h/mL: is that where AUC(0-t) at 3 h of CC(C)C(O/N=C(\C(=O)N[C@@H]1C(=O)N(OS(=O)(=O)O)C1(C)C)c1csc(N)n1)c1cc(=O)c(O)cn1O (stereo partly specified) sits?
NOT MET

Strictly below 700 ng·h/mL: is that where AUC(0-t) at 3 h of CC1(C)[C@H](NC(=O)/C(=N\OC(CS(C)(=O)=O)c2cc(=O)c(O)cn2O)c2csc(N)n2)C(=O)N1OS(=O)(=O)O (stereo partly specified) sits?
NOT MET

Strictly below 700 ng·h/mL: is that where AUC(0-t) at 3 h of CSCC(O/N=C(\C(=O)N[C@@H]1C(=O)N(OS(=O)(=O)O)C1(C)C)c1csc(N)n1)c1cc(=O)c(O)cn1O (stereo partly specified) sits?
MET

Strictly below 700 ng·h/mL: is that where AUC(0-t) at 3 h of CC(C)C(O/N=C(\C(=O)N[C@@H]1C(=O)N(OS(=O)(=O)O)C1(C)C)c1nc(N)sc1Cl)c1cc(=O)c(O)cn1O (stereo partly specified) sits?
MET

Strictly below 700 ng·h/mL: is that where AUC(0-t) at 3 h of CC(C)[C@H](O/N=C(\C(=O)N[C@@H]1C(=O)N(OS(=O)(=O)O)C1(C)C)c1csc(N)n1)c1cc(=O)c(O)cn1O sits?
MET

Strictly below 700 ng·h/mL: is that where AUC(0-t) at 3 h of CC1(C)[C@H](NC(=O)/C(=N\OCc2cc(=O)c(O)cn2O)c2csc(N)n2)C(=O)N1OS(=O)(=O)O sits?
NOT MET

###

Test: Drug degradation in human plasma at 10 uM after 4 hrs by LC-MS/MS analysis
Format: ADME, cell-free
Settings: read-out: Drug degradation
For each of the compounds below, state its metabolised at 4 h, 10 µM.
Give the value in % but do not write % after it.

According to the records, this compound CCC(O/N=C(\C(=O)N[C@@H]1C(=O)N(OS(=O)(=O)O)C1(C)C)c1csc(N)n1)c1cc(=O)c(O)cn1O (some centres not stated) displays metabolised at 4 h, 10 µM of 27

According to the records, this compound CC1(C)[C@H](NC(=O)/C(=N\OC(CO)c2cc(=O)c(O)cn2O)c2csc(N)n2)C(=O)N1OS(=O)(=O)O (some centres not stated) displays metabolised at 4 h, 10 µM of 50

According to the records, this compound CC(O/N=C(\C(=O)N[C@@H]1C(=O)N(OS(=O)(=O)O)C1(C)C)c1csc(N)n1)c1cc(=O)c(O)cn1O (some centres not stated) displays metabolised at 4 h, 10 µM of 24

According to the records, this compound CC(C)SCC(O/N=C(\C(=O)N[C@@H]1C(=O)N(OS(=O)(=O)O)C1(C)C)c1csc(N)n1)c1cc(=O)c(O)cn1O (some centres not stated) displays metabolised at 4 h, 10 µM of 34

According to the records, this compound CC(C)[C@H](O/N=C(\C(=O)N[C@@H]1C(=O)N(OS(=O)(=O)O)C1(C)C)c1nc(N)sc1Cl)c1cc(=O)c(O)cn1O displays metabolised at 4 h, 10 µM of 33

According to the records, this compound CC(C)[C@H](O/N=C(\C(=O)N[C@@H]1C(=O)N(OS(=O)(=O)O)C1(C)C)c1nsc(N)n1)c1cc(=O)c(O)cn1O displays metabolised at 4 h, 10 µM of 16

According to the records, this compound CC1(C)[C@H](NC(=O)/C(=N\OCc2cc(=O)c(O)cn2O)c2csc(N)n2)C(=O)N1OS(=O)(=O)O displays metabolised at 4 h, 10 µM of 12
